Data credit: patent US8173631B2

- Test Target: human calcium-sensing receptor (CaSR) (Homo sapiens)
- Sequence (P41180 20-1078): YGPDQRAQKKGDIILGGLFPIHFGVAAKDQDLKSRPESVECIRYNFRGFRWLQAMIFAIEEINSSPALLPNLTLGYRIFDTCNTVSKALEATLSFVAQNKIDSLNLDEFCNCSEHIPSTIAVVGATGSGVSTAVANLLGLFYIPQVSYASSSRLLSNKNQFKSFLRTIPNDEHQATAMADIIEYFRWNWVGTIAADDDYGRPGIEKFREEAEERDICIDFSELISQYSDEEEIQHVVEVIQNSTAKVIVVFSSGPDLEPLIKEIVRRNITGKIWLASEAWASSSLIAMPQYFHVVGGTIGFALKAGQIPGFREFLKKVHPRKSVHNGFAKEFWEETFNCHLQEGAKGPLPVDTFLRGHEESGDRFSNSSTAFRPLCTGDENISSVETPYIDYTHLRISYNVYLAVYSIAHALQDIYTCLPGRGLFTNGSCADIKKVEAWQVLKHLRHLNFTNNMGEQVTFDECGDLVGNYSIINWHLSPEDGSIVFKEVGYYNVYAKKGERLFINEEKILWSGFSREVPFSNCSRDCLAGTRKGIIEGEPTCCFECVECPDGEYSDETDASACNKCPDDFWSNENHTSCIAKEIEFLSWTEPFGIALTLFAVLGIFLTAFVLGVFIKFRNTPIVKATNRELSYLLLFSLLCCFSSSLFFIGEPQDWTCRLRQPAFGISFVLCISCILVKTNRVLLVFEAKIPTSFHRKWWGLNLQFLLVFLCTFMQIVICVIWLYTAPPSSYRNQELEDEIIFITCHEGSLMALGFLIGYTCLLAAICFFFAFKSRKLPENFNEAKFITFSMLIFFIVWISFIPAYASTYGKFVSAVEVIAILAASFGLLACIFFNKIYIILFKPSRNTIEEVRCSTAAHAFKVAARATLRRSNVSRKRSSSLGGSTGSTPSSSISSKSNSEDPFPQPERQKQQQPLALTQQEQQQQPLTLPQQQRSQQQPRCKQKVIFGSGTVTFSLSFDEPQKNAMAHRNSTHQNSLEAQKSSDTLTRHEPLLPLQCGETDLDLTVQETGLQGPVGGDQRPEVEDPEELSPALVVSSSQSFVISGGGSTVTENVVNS
- Procedure Text: Inhibitory activity on calcium-sensing receptor (CaSR), intracellular calcium increase as indicator (FLIPR, CHO/hCaSR)
- Condition Context: CHO cells stably expressing human CaSR; inhibition of intracellular Ca increase induced by extracellular CaCl2
Kindly state IC50 for each of the entries shown.

>>> result("CC[C@@H](OC[C@H](O)CN1CCC[C@H]1Cc1ccc(Cl)c(Cl)c1)c1cccc(Cl)c1CCC(=O)O [Example 113]")
"≤ 3.03 µM"
>>> result("Cc1ccc(C[C@@H]2CCN2C[C@@H](O)CO[C@H](C)c2ccccc2CCCCC(=O)O)cc1F [Example 15]")
"≤ 3.5 µM"

With those in mind, consider the next compound.
Prompt: Give IC50 (human calcium-sensing receptor (CaSR) (Homo sapiens)) of the following compound: C[C@@H](OC[C@H](O)CN1CCC[C@H]1Cc1ccc(Cl)c(Cl)c1)c1cc(F)ccc1CCC(=O)O [Example 96]
Completion: ≤ 3.21 µM
